// merged dataset of pIC50 values, system = human DGAT1 (Homo sapiens, UniProt O75907), multiple refs
Sequence (O75907 whole entry): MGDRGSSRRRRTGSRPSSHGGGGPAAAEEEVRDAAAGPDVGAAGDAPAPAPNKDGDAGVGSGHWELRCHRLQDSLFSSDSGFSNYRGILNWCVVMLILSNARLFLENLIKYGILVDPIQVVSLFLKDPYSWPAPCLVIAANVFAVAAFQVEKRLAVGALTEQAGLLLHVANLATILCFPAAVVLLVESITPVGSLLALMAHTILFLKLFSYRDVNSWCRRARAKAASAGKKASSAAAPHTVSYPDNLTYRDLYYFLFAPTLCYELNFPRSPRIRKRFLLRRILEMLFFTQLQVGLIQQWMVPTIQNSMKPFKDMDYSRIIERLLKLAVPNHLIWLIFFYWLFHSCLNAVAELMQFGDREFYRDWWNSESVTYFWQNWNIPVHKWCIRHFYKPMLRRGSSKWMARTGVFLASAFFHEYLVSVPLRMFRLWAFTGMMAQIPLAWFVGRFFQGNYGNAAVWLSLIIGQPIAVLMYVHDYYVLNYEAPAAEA
pIC50 is a log-scale quantity: -log10 of the concentration expressed in molar.

Recorded pIC50, per entry:
C=CCC(NC(=O)OC(C)(C)C)C(=O)Nc1ccc(C2CCN(C(=O)Nc3c(Cl)cccc3Cl)CC2)cc1 (stereo not shown); 6.68
O=C(Nc1ccc(N2CCN(C(=O)Nc3c(Cl)cccc3Cl)CC2)cc1)c1ccccc1-c1ccccc1; 7.69
CCOC(=O)CC(=O)Nc1ccc(N2CCN(C(=O)Nc3c(Cl)cccc3Cl)CC2)cc1; 7.02

Moving on to another molecule below.
Ask: Entry CC(C)(COC1CCN(c2ccc(-c3nc4cc(Cl)c(Cl)cc4[nH]3)cn2)CC1)C(=O)O needs its pIC50 filled in; supply it.
Reply: 8.70
